Recorded melting point by entry
assayEndpoint: melting point (°C)

cpdSmiles | assayEndpoint | readoutValue
CCOc1nn(C(=O)NS(=O)(=O)/N=c2\sccn2CCCF)c(=O)n1C1CC1 | melting point | 180
CCOc1nn(C(=O)NS(=O)(=O)/N=c2\sccn2CCCF)c(=O)n1C | melting point | 178
COc1nn(C(=O)NS(=O)(=O)/N=c2\sccn2CCCF)c(=O)n1C | melting point | 189
CC(C)Oc1nn(C(=O)NS(=O)(=O)/N=c2\sccn2CCCF)c(=O)n1C1CC1 | melting point | 154
CC(C)Oc1nn(C(=O)NS(=O)(=O)/N=c2/sccn2CCCF)c(=O)n1C | melting point | 170

----------
- Tested on: Abutilon
- protocolText: Post-emergence test/greenhouse
- Format: in vivo
- testParameters: 504 h, 60 g of a.i./ha, after three weeks, read-out: degree of damage, Abutilon
assayEndpoint: pest or weed control at 60 g/ha (%)

cpdSmiles | measuredOn | readoutValue
CCOc1nn(C(=O)NS(=O)(=O)/N=c2\sccn2CCCF)c(=O)n1C1CC1 | Abutilon | 95
CCCc1nn(C(=O)NS(=O)(=O)/N=c2\sccn2CCC)c(=O)n1C | Abutilon | 90
CCCn1ccs/c1=N\S(=O)(=O)NC(=O)n1nc(OC(C)C)n(C)c1=O | Abutilon | 90
CC(C)Oc1nn(C(=O)NS(=O)(=O)/N=c2/sccn2CCCF)c(=O)n1C | Abutilon | 90
CC(C)Oc1nn(C(=O)NS(=O)(=O)/N=c2\sccn2CCCF)c(=O)n1C1CC1 | Abutilon | 90

----------
- Tested on: Echinochloa
- protocolText: Pre-emergence test/greenhouse
- Type: in vivo
- testParameters: 504 h, 125 g of a.i./ha, after three weeks, read-out: degree of damage, Echinochloa
Recorded pest or weed control at 125 g/ha by entry

cpdSmiles | measuredOn | pest or weed control at 125 g/ha [%]
CCCn1ccs/c1=N\S(=O)(=O)NC(=O)n1nc(OC)n(C2CC2)c1=O | Echinochloa | 95
CC(C)Oc1nn(C(=O)NS(=O)(=O)/N=c2/sccn2CCCF)c(=O)n1C | Echinochloa | 90
CCCn1ccs/c1=N\S(=O)(=O)NC(=O)n1nc(OC(C)C)n(C2CC2)c1=O | Echinochloa | 80
CCCn1ccs/c1=N\S(=O)(=O)NC(=O)n1nc(OCC)n(C2CC2)c1=O | Echinochloa | 95
CCOc1nn(C(=O)NS(=O)(=O)/N=c2\sccn2CCCF)c(=O)n1C1CC1 | Echinochloa | 100
CC(C)Oc1nn(C(=O)NS(=O)(=O)/N=c2\sccn2CCCF)c(=O)n1C1CC1 | Echinochloa | 80
COc1nn(C(=O)NS(=O)(=O)/N=c2\sccn2CCCF)c(=O)n1C | Echinochloa | 90
